experiment: Inhibition of [3H]WIN-35428 binding to dopamine transporter (DAT)
READOUT NAME: pIC50
// returns pIC50 (minus log10 of molar concentration), number only

# input Dear colleague, please send me the reported pIC50 for COC(=O)[C@H]1[C@@H](OC(=O)c2ccccc2)C[C@@H]2CC[C@H]1N2C when you can.
# output 7.00

###

# IC50 per entry
target: Sodium-dependent dopamine transporter (Homo sapiens, UniProt Q01959)
Sequence (Q01959 whole entry): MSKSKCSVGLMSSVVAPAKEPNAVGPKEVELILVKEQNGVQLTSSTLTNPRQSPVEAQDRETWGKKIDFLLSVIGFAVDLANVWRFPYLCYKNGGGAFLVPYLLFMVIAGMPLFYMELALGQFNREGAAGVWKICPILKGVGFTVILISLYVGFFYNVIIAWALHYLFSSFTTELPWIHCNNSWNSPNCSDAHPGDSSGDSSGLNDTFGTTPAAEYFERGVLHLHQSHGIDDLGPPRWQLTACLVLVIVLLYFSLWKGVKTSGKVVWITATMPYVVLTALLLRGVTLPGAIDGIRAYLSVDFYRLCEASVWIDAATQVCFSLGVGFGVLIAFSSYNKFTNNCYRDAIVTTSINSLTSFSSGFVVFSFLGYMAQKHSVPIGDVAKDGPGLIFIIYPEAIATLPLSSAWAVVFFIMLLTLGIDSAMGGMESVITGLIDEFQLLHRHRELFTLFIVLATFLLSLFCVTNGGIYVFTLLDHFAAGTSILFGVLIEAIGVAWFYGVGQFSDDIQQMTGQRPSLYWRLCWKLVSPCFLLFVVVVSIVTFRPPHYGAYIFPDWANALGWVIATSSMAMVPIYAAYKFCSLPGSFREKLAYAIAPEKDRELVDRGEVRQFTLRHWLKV

Below: 3 compounds and their reported IC50.
compound="COC(=O)C1=C(c2ccc(Br)cc2)CC2CCC1S2 (stereo unspecified)" reported_result="9.1 nM"
compound="COC(=O)C1=C(c2ccc(I)cc2)CC2CCC1O2 (stereo unspecified)" reported_result="68 nM"
compound="COC(=O)C1=C(c2ccccc2)CC2CCC1S2 (stereo unspecified)" reported_result="910 nM"

# input State IC50 (Sodium-dependent dopamine transporter (Homo sapiens, UniProt Q01959)) of COC(=O)C1=C(c2ccc(Cl)c(Cl)c2)CC2CCC1O2 (stereo unspecified) .
# output 12 nM

# input Enter recorded IC50 with Sodium-dependent dopamine transporter (Homo sapiens, UniProt Q01959) for COC(=O)C1=C(c2ccc(Cl)c(Cl)c2)CC2CCC1S2 (stereo unspecified) here.
# output 4.5 nM

# input Specify the recorded IC50 for COC(=O)C1=C(c2ccccc2)CC2CCC1O2 (stereo unspecified) , system: Sodium-dependent dopamine transporter (Homo sapiens, UniProt Q01959).
# output > 10000 nM
